TARGET_ENTITY: RORγ ligand binding domain (LBD) (Homo sapiens (Human), UniProt P51449)
PROTOCOL: TR-FRET Activity Assay (ligand sensing assay, LANCE)
RUN_PARAMETERS: TR-FRET, interaction of RORγ-LBD with coactivator peptide
QUANTITY_NAME: pIC50 (FRET)

| MOLECULE | QUANTITY_NAME | EXPERIMENTAL_VALUE |
| --- | --- | --- |
| CC(C)(C)c1cc(-c2sc(C(=O)NC3CC(C(=O)O)C3)nc2CC2CCCCC2)nc(C(C)(C)C)n1 (stereo not shown) | pIC50 (FRET) | 6.5 |
| CC(C)(C)c1cc(-c2sc(C(=O)NC3CC(C(=O)O)C3)nc2CC2CCCCC2)nc(C2(C)CC2)n1 (stereo not shown) | pIC50 (FRET) | 6.1 |
| CC(C)(C)NS(=O)(=O)c1ccc(-c2sc(C(=O)NC3CCC(C(=O)O)C3)nc2CC2CCCCC2)c2ccccc12 (stereo not shown) | pIC50 (FRET) | 6.3/8.4/8.4 |
| CC(C)(C)NS(=O)(=O)c1ccc(-c2oc(C(=O)NC3CCOCC3)nc2CC2CCCCC2)cc1C(C)(C)C | pIC50 (FRET) | 5.9/6.3/6.3 |
| COC(c1nc(C(=O)N[C@H]2C[C@H](C(=O)O)C2)sc1-c1ccc(S(=O)(=O)NC(C)(C)C)c(C(C)(C)C)c1)C1CCCCC1 (stereo partly shown) | pIC50 (FRET) | 5.4/6.4/6.6 |
| CC(C)(C)NS(=O)(=O)c1ccc(-c2oc(C(=O)NC34CCC(C(=O)O)(CC3)C4)nc2CC2CCCCC2)c2ccccc12 | pIC50 (FRET) | 6.1/8.3/8.4 |
| CC(C)(C)NS(=O)(=O)c1ccc(-c2sc(C(=O)NC3CCS(=O)(=O)CC3)nc2CC2CCCCC2)c2ccccc12 | pIC50 (FRET) | 6.7/9.0/9.0 |

====

Reported pIC50 (FF) values for the following molecules.
TARGET_ENTITY: RORγ (Homo sapiens)
Sequence (P51449 whole entry, looked up, the tested form may be a part): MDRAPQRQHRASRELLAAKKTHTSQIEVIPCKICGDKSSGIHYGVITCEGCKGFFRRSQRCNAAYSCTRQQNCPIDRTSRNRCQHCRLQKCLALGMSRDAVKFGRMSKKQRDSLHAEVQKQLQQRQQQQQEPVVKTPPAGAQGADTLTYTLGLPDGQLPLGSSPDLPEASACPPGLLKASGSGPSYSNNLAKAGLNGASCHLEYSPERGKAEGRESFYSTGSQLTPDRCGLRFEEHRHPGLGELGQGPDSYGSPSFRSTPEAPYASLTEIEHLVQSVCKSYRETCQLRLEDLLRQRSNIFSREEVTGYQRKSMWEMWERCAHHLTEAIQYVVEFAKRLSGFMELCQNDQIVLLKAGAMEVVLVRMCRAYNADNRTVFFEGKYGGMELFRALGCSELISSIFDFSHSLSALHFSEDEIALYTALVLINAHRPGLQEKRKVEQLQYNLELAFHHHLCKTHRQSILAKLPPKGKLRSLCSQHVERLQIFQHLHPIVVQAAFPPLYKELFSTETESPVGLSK
PROTOCOL: RORγ Gal4 Reporter Gene Assay
Format: cell-based
Protocol: Determination of a ligand mediated Gal4 promoter driven transactivation to quantify ligand binding to RORγ was performed as follows: DNA encoding three different RORγ protein fragments was cloned into vector pCMV-BD (Stratagene). Expression was under control of a CMV promoter and as fusion to the DNA-binding domain of the yeast protein GAL4. […]

| ITEM_SMILES | TARGET_ENTITY | pIC50 (FF) |
| --- | --- | --- |
| CC(C)(C)NS(=O)(=O)c1ccc(-c2sc(C(=O)N[C@H]3C[C@H](C(=O)O)C3)nc2CC2CCCCC2)c2c(F)cccc12 | RORγ (Homo sapiens) | 6.3/7.0/7.1 |
| CC(C)(C)NS(=O)(=O)c1ccc(-c2oc(C(=O)NCC3(O)CCOCC3)nc2CC2CCCCC2)c2ccccc12 | RORγ (Homo sapiens) | 6.3/8.1/8.2 |

====

Catalogue of pIC50 (FF) readings, one per entry.
TARGET_ENTITY: RORγ (Homo sapiens)
PROTOCOL: RORγ Gal4 Reporter Gene Assay
Format: cell-based
Protocol: Determination of a ligand mediated Gal4 promoter driven transactivation to quantify ligand binding to RORγ was performed as follows: DNA encoding three different RORγ protein fragments was cloned into vector pCMV-BD (Stratagene). Expression was under control of a CMV promoter and as fusion to the DNA-binding domain of the yeast protein GAL4. […]

| ITEM_SMILES | TARGET_ENTITY | pIC50 (FF) |
| --- | --- | --- |
| CC(C)(C)NS(=O)(=O)c1ccc(-c2sc(C(=O)NC3CCS(=O)(=O)CC3)nc2CC2CCCCC2)cc1C(C)(C)O | RORγ (Homo sapiens) | 6.6/7.7/7.8 |
| CC(C)(C)NS(=O)(=O)c1ccc(-c2oc(C(=O)NCC3(O)CCS(=O)(=O)CC3)nc2CC2CCCCC2)c2ccccc12 | RORγ (Homo sapiens) | 6.5/8.0/8.2 |
| CC(C)(C)NS(=O)(=O)c1ccc(-c2oc(C(=O)N[C@H]3C[C@H](C(=O)O)C3)nc2CC2CCCCC2)c2ccccc12 | RORγ (Homo sapiens) | 6.1/7.0/7.1 |
